SYSTEM_NAME: recombinant cynomolgus monkey IL-21 (cynomolgus monkey (Macaca fascicularis), UniProt Q9HBE4 30-162 (human entry), limits assumed)
Sequence (Q9HBE4 other isoform, or with tags, fused parts or gaps limits assumed): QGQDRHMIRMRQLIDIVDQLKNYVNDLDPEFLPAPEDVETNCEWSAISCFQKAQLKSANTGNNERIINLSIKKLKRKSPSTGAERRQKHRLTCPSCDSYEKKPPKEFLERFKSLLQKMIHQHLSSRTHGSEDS
ASSAY_INFO: cell-based or functional assay
IC50 in pSTAT3 assay (human PBMCs, 20 pM IL-21) vs 80 pM: less than gives MET; not less than gives NOT MET.

Here are 4 binders together with their reported answers.
K44VHa6-N56Q (antibody, IgG1, V domains shown) VH: QVQLVQSGAEVKKPGASVKVSCKASGYTFTDYWMHWVRQAPGQGLEWMGTIDPSDQYTIYSQNFKGRVTMTVDESTSTVYMELSSLRSEDTAVYYCARYGFAMDYWGQGTLVTVSS VL: DIQLTQSPSSLSASVGDRVTITCRASQDISNFLNWYQQKPGKAVKLLIYYTSRLHSGVPSRFSGSGSGTDYTLTISSLQPEDFATYYCQQGHTLPRTFGGGTKVEIKR    MET
K44VHa-N56Q (MEDI7169) (antibody, V domains shown) VH: QVQLVQSGAEVKKPGASVKVSCKASGYTFTDYWMHWVRQAPGQGLEWMGTIDPSDQYTIYSQNFKGRVTMTRDTSTSTVYMELSSLRSEDTAVYYCARYGFAMDYWGQGTLVTVSS VL: DIQLTQSPSSLSASVGDRVTITCRASQDISNFLNWYQQKPGKAVKLLIYYTSRLHSGVPSRFSGSGSGTDYTLTISSLQPEDFATYYCQQGHTLPRTFGGGTKVEIK    MET
9F11-11 (antibody, IgG1, V domains shown) VH: EVQLVESGGGLVQPGGSLRLSCAASGFTFSDAWMDWVRQAPGKGLEWVAEIRSEADNHPTYYAESVKGRFTISRDDSKNSLYLQMNSLKTEDTAVYYCTEYDYEGFVHWGQGTLVTVSS VL: DIVLTQTPLSLSVTPGQPASISCRASKSVSTYGYSYMHWYLQKPGQPPQLLIYLASNLESGVPDRFSGSGSGTDFTLKISRVEAEDVGVYYCQHSRELPLTFGQGTKLEIK    MET
murine monoclonal antibody 9F11 (antibody, V domains shown, also called 9F11.1) VH: EVELVESGGGLVQPGGSMKLSCAASGFTFSDAWMDWVRQSPEKGLEWVAEIRSEADNHPTYYAESVKGRFTISRDDSKSSVYLQMNSLRAEDSGIYYCTEYDYEGFVHWGQGTLVTVSA VL: DIVLTQSPASLAVSLGQRATISCRASKSVSTYGYSYMHWYQQKPGQPPKLLIYLASNLESGVPARFSGSGSGTDFTLNIHPVEEEDAATYYCQHSRELPLTFGAGTKLELK    NOT MET

Below: the item to evaluate.
**Query** I wonder whether murine monoclonal antibody 8B6 (antibody, V domains shown, also called 8B6.1) VH: EVQLVESGGGSVKPGGSLKLSCAASGLTFSHYYMYWVRQTPEKRLEWVAIISDGGDYTHYSDSVKGRFTISRDNAKNNLYLQMSSLQSEDTAMYYCAGDYGYGYEGWFAYWGQGTLVTVST VL: DIVMTQSQKFMSTSVGDRVSVTCKASQNVDTYVAWYQQKPGQSPKALIYSTSYRYSGVPDRFTGSGSGTDFTLTISNVQSEDLAEYFCQQYNSYPWTFGGGTKLEIK has IC50 in pSTAT3 assay (human PBMCs, 20 pM IL-21) below 80 pM. Can you tell?
**Result** NOT MET
